Reported growth inhibition is given for each of the following compounds.
assay: NCI Yeast Anticancer Drug Screen. Data for the wt1 strain (AID 149);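 note: 0% = growth of vehicle-treated wt1 cultures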; details: S. cerevisiae wt1 strain (SPY 50644) growth inhibition; at 100.0 µM; stronger effect = higher value
About 79,000 compounds went through this panel and 15% of them were active in at least one assay; those are over-represented in the sample as a whole.
Your answer is read as %, so omit the unit and give the number.

Request: Answer with the recorded growth inhibition for the compound listed here: Cc1ccc2nc(-c3cccc([N+](=O)[O-])c3)oc(=O)c2c1
Result: -20

Request: Specify measured growth inhibition for CN(CCN(C)Cc1ccccc1)Cc1ccccc1 .
Result: 14

Others:
Request: Look up growth inhibition of COc1cc2ccnc(-c3c4ccccc4c(N)c4c(OC)c(OC)ccc34)c2cc1OC and report it.
Result: 30

Request: // fetch growth inhibition given entry COc1cc([C@@H]2c3cc4c(cc3[C@@H](Nc3ccc(NC(=O)c5cc([N+](=O)[O-])cn5C)cc3)[C@H]3COC(=O)[C@H]23)OCO4)cc(OC)c1O
Result: 36

Request: Give the value of growth inhibition reported for the following: CN(C)c1nc(=Nc2cccc(Cl)c2)ss1
Result: 99

---

assay: NCI Yeast Anticancer Drug Screen. Data for the rad18 strain (AID 177); details: S. cerevisiae rad18 mutant growth inhibition; at 11.0 µM; stronger effect = higher value
The panel holds about 79,000 compounds, 15% with a hit somewhere; the sample as a whole holds those more often.
endpoint: growth inhibition (%)
State just the number; it will be interpreted in %.

Request: Please indicate growth inhibition recorded for Cc1cc(S(=O)(=O)Nc2nnc3cnc4ccccc4n23)c(S)cc1Cl
Result: 21

Request: Report measured growth inhibition; entry is CCCCCCSc1ncnc2[nH]ncc12
Result: 6

Request: State its growth inhibition: O=C(/C=C\c1cccc(C(F)(F)F)c1)c1ccccc1
Result: 7

New cases:
Request: Provide only the value of recorded growth inhibition for CC(C)(C)CC(C)(C)c1cc(O)c(O)c(CN2CCCCC2)c1
Result: -38

Request: Please report growth inhibition for the following molecule: CCc1ccc2c(c1)N(CC(C)CN(C)C)c1ccccc1S2 (configuration not stated)
Result: -8

---

assay: NCI Yeast Anticancer Drug Screen. Data for the rad50 strain (AID 155);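 note: 0% = growth of vehicle-only cultures of the same strain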; settings: S. cerevisiae rad50 strain growth inhibition; at 1.2 µM; stronger effect = higher value
The panel holds about 79,000 compounds, 15% with a hit somewhere; the sample as a whole holds those more often.
Form field: growth inhibition (one value per entry).
Please reply with the bare figure in % and do not write the unit itself.

Request: Give the value of growth inhibition reported for the following: O=C(NO)Nc1cc(Cl)cc(Cl)c1
Result: 7

Request: Note growth inhibition for the compound shown: CN(C)CCNC(=O)c1cccc2cc([N+](=O)[O-])ccc12
Result: 35

Request: Return reported growth inhibition. Input compound: CC(C)=NOC(=O)Nc1ccc(Cl)cc1
Result: 2

Request: Give growth inhibition for C=C(Cl)COC(=O)Nc1cccc(Cl)c1
Result: 8

Request: Supply growth inhibition value. Item: CC1SC2(C(=O)Nc3ccc(Cl)cc32)N(c2ccc(Cl)cc2)C1=O (stereo unspecified)
Result: -14

---
Request: Give recorded growth inhibition. COc1ccc2[nH]cc([C@@H]3C4CCC(C4)[C@H]3NCc3cccc(CN[C@H]4C5CCC(C5)[C@@H]4c4c[nH]c5ccc(OC)cc45)c3)c2c1
Result: -36

---

assay: NCI Yeast Anticancer Drug Screen. Data for the bub3 strain (AID 167); settings: S. cerevisiae bub3 mutant strain, at 50.0 µM (retest, dose inferred, filed as 5.0), stronger effect = higher value
The panel holds about 79,000 compounds, 15% with a hit somewhere; the sample as a whole holds those more often. Active and inactive are the calls of the source. No stated cut-off is given here; in the data, active means growth inhibition above about 70%; inactive means the rest.
endpoint: growth inhibition

Solved cases (10 shown):
Request: Answer with the recorded growth inhibition for the compound listed here: O=C1Nc2ccc(Br)cc2C1=Nc1ccc2c(c1)OCO2
Result: 73% (active)

Request: Dear colleague, please send me the reported growth inhibition for CCOC(=O)c1[nH]cc(C)c1-c1cccn1-c1ccc(Cl)cc1[N+](=O)[O-] when you can.
Result: 68% (inactive)

Request: Supply recorded growth inhibition for C[C@@](O)(/C=C/[C@H]1CC=CC(=O)O1)[C@@H](C[C@@H](O)\C=C/C=C\C=C\CO)OP(=O)(O)O here.
Result: 91% (active)

Request: Give recorded growth inhibition. CN(C)C=NC1CCC(C(C)(C)C)CC1 (stereo not drawn)
Result: 98% (active)

Request: Identify measured growth inhibition associated with CC1=C(C(=O)NCc2ccccc2)C(c2ccccc2)C(C(=O)NCc2ccccc2)=C(C)N1
Result: 84% (active)

Request: Recall and state the measured growth inhibition for O=C(O)c1cc2ccccc2c2c1C(=O)c1ccccc1-2 .
Result: 96% (active)

Request: Give the reported value of growth inhibition for this record: CNC(=O)OCc1c(COC(=O)NC)c(-c2ccc(Cl)c(Cl)c2)n2c1SCC2
Result: 9% (inactive)

Request: Supply reported growth inhibition belonging to this compound: O=[N+]([O-])/C=C/c1cc(Cl)c(/C=C/[N+](=O)[O-])cc1Cl
Result: 96% (active)

Request: For CCCC(=O)Oc1ccc(/C=N/NC(N)=S)nc1 , write its growth inhibition.
Result: -14% (inactive)

Request: Look up and report measured growth inhibition for this entry: CCCCC(CC)C(=O)[O][Sn]([CH2]CCC)([CH2]CCC)[O]C(=O)C(CC)CCCC (stereo not drawn)
Result: 93% (active)

***
Request: Look up and report measured growth inhibition for this entry: Cc1c(-c2ccccn2)ccc2ccccc12
Result: 90% (active)

Request: Indicate the recorded growth inhibition value for this compound: CCc1c[n+]([O-])c(C)cc1[N+](=O)[O-]
Result: 52% (inactive)

Request: Dear colleague, please send me the reported growth inhibition for O=C1NC(SSC2=NNC3(C(=O)N2)c2ccccc2-c2ccccc23)=NNC12c1ccccc1-c1ccccc12 when you can.
Result: 25% (inactive)

Request: Supply recorded growth inhibition for CC(=O)OCC(C)Cc1cc2c(cc1Br)OCO2 (stereo not drawn) here.
Result: 43% (inactive)

Request: Report growth inhibition, nothing else, for this compound: CCOc1c(N=Nc2ccccc2OC)c(C)nn1C(=S)S
Result: 50% (inactive)

---

assay: NCI Yeast Anticancer Drug Screen. Data for the wt2 strain (AID 169);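 note: 0% = growth of vehicle-treated yeast cultures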; conditions: S. cerevisiae wt2 strain growth inhibition; at 33.0 µM; stronger effect = higher value
The panel holds about 79,000 compounds, 15% with a hit somewhere; the sample as a whole holds those more often.
growth inhibition by entry:
Answer format: numeric, % implied, no suffix.

The cases that follow already have their growth inhibition on record.
Request: Provide one value: measured growth inhibition of O=[N+]([O-])c1cc(F)c(F)cc1Sc1cc(F)c(F)cc1[N+](=O)[O-]
Result: 99

Request: Return reported growth inhibition. Input molecule: Cc1ccc(Cl)cc1NC(=O)OCCN(C)C(=O)Nc1cc(Cl)ccc1C
Result: -8

Request: Provide growth inhibition value for the following molecule: O=C1CSC(c2cccc(Cl)c2)N1c1ccc(-c2ccc(-n3c(-c4ccccc4)nc4ccccc4c3=O)cc2)cc1 (centres undefined)
Result: 15

Request: Write down growth inhibition measured for item Cc1cc(-c2cc(C)c(O)c(C(C)(C)C)c2)cc(C(C)(C)C)c1O
Result: 4

Request: Please list growth inhibition recorded for the molecule O=C(CC(C(=O)O)N1CCOCC1)c1ccccc1 (centres undefined)
Result: 31

Request: Give growth inhibition for the following molecule: CCCCCCCCCCCCNC(C)=O
Result: -7

Request: Look up and state reported growth inhibition for Cc1cc(C(C)(C)CC(C)(C)C)ccc1O
Result: 99

Request: Return the recorded growth inhibition value; entry: O=c1ccc(=O)n(-c2ccccc2)[nH]1
Result: 66

Request: Respond only with growth inhibition recorded for Cc1cc(O)c(C(C)C)cc1C1(c2cc(C(C)C)c(O)cc2C)OC(=O)c2ccccc21
Result: -3

Request: State, in one line, measured growth inhibition of Cc1cc(C)c(NC(=S)NC(=O)c2ccccc2)cc1C
Result: -4

More entries:
Request: Please give the documented growth inhibition of CSc1nc(C)c(CCOC(C)=O)c(N=P(c2ccccc2)(c2ccccc2)c2ccccc2)n1
Result: -1

Request: Using the record for Cc1cc2c(cc1C)[n+]([O-])c(-c1nc3ccccc3s1)c(N)[n+]2[O-] , state its measured growth inhibition.
Result: 21

Request: Answer with the recorded growth inhibition of CC1=CC(=C(c2ccc(N)cc2)c2ccc(N)cc2)C=CC1=N only.
Result: -6

---

assay: NCI Yeast Anticancer Drug Screen. Data for the bub3 strain (AID 167); conditions: S. cerevisiae bub3 mutant strain, at 1.2 µM, stronger effect = higher value
Compounds without any hit were thinned out: in the full panel of roughly 79,000, 15% have a hit. The source made the active and inactive calls. Rule as the data show it: active = growth inhibition above about 70%; inactive = the rest.
endpoint: growth inhibition

Request: Provide growth inhibition value for the following compound: CN(C)/C=C/c1nnc([N+](=O)[O-])s1
Result: -5% (inactive)

Request: Fill in reported growth inhibition for this entry: COc1c(O)c(C=O)c(Br)c(C=O)c1O
Result: -4% (inactive)

Request: Annotate the compound O=[N+]([O-])c1cccc2nc3ccccc3c(NCCC[N+]3([O-])CCCCC3)c12 with its measured growth inhibition.
Result: -13% (inactive)

Request: # return recorded growth inhibition for entry COc1ccc(/C=C/c2sc3ccccc3[n+]2CCCCI)cc1OC
Result: -4% (inactive)

Request: Answer with the recorded growth inhibition of CC(/C=C/c1ccccc1)=N\NC(N)=S only.
Result: 9% (inactive)

Request: For the compound CC(C)OC(=O)c1ccc(CCc2cc(O)c(Br)cc2O)cc1 , give its reported growth inhibition.
Result: 22% (inactive)

New cases:
Request: Supply recorded growth inhibition for CC(O)=NC(Cc1ccc2ccccc2c1)C(O)=NC(Cc1ccc(Cl)cc1)C(O)=NC(Cc1c[nH]c2ccccc12)C(O)=NC(CO)C(O)=NC(Cc1ccc(O)cc1)C(O)=NC(CCCN=C(N)N)C(O)=NC(CC(C)C)C(O)=NC(CCCN=C(N)N)C(=O)N1CCCC1C(O)=NC(C)C(=N)O (centres undefined) here.
Result: -2% (inactive)

Request: Please give the documented growth inhibition of CCCCOP(=O)(CCCP(=O)(OCCCC)OCCCC)OCCCC
Result: -5% (inactive)

Request: Answer with the recorded growth inhibition of O=C1Nc2ccc(Br)cc2C1=Nc1ccc2c(c1)OCO2 only.
Result: -26% (inactive)

// provenance: PubChem BioAssay (NCI)
